Could you please report measured Kd for the items listed next?
molecular target: T1, recombinant human IL-6 (human, UniProt P05231 30-212); experiment: SPR (Biacore), supernatant IgG on Protein A, 25 C
T1 construct: Flowed in solution over the captured antibodies
T1 sequence (P05231 30-212 limits assumed): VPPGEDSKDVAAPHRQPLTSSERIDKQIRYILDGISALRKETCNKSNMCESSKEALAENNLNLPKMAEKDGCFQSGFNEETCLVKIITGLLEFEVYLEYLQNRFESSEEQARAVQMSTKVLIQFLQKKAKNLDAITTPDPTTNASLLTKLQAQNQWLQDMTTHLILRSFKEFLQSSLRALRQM
# value in nM; strip the unit string

In: Give the value of Kd reported for the following: anti-IL-6 antibody, heavy chain G66D, light chain WT (antibody, IgG1, V domains shown, Full IgG1 tested) VH: EVQLVESGGGLVQPGGSLRLSCAASGFTFSPFAMSWVRQAPGKGLEWVAKISPGGSWTYYSDTVTDRFTFSLDTSKSTAYLQMNSLRAEDTAVYYCARQLWGYYALDIWGQGTLVTVSS VL: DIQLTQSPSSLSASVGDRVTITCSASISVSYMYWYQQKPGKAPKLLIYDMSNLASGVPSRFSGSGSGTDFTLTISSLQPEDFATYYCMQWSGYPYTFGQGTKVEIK
Out: 0.0902

In: Give the value of Kd reported for the following: anti-IL-6 antibody, heavy chain I108S, light chain WT (antibody, IgG1, V domains shown, Full IgG1 tested; V domains derived as in m2) VH: EVQLVESGGGLVQPGGSLRLSCAASGFTFSPFAMSWVRQAPGKGLEWVAKISPGGSWTYYSDTVTGRFTFSLDTSKSTAYLQMNSLRAEDTAVYYCARQLWGYYALDSWGQGTLVTVSS VL: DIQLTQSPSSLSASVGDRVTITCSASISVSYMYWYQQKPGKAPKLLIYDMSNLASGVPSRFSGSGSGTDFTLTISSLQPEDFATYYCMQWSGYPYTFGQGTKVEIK
Out: 0.256

In: Give the value of Kd reported for the following: anti-IL-6 antibody, heavy chain S35Q, light chain WT (antibody, IgG1, V domains shown, Full IgG1 tested; V domains derived as in m2) VH: EVQLVESGGGLVQPGGSLRLSCAASGFTFSPFAMQWVRQAPGKGLEWVAKISPGGSWTYYSDTVTGRFTFSLDTSKSTAYLQMNSLRAEDTAVYYCARQLWGYYALDIWGQGTLVTVSS VL: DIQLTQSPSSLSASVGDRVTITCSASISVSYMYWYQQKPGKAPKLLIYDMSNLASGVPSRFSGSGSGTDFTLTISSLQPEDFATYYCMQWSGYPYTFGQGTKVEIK
Out: 0.346

In: Give the value of Kd reported for the following: anti-IL-6 antibody, heavy chain T28A, light chain WT (antibody, IgG1, V domains shown, Full IgG1 tested; V domains derived as in m2) VH: EVQLVESGGGLVQPGGSLRLSCAASGFAFSPFAMSWVRQAPGKGLEWVAKISPGGSWTYYSDTVTGRFTFSLDTSKSTAYLQMNSLRAEDTAVYYCARQLWGYYALDIWGQGTLVTVSS VL: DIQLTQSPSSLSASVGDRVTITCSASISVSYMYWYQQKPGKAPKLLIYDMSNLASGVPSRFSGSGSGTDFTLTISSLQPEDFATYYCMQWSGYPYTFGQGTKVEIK
Out: 0.354
